- System: HCI-024 (organoid from a breast cancer xenograft)
- assay protocol: CTG-3D luminescence at 96 h relative to day-0 seeding control (ratio to day 0); higher = more growth / less cytotoxicity; PDxO 3D drug screen, 96 h, CTG-3D normalised to day-0 seeding control.
- protocol conditions: 12.5 pM; days in culture: 163
reported property: CTG-3D luminescence at 96 h
One number for each entry.

Solved cases (5 shown):
C[C@H](NC(=O)CCC(F)(F)F)C(=O)N[C@@H]1C(=O)N(CCO)c2ncccc2-c2ccccc21 [crenigacestat]    1.93
C[C@@H]1COCCN1c1cc(C2([S@](C)(=N)=O)CC2)nc(-c2cc[nH]c3nccc2-3)n1 [ceralasertib]    1.95
C[C@]12CC[C@@H]3c4ccc(O)cc4C[C@@H](CCCCCCCCC[S+]([O-])CCCC(F)(F)C(F)(F)F)[C@H]3[C@@H]1CC[C@@H]2O (stereo partly drawn) [fulvestrant]    1.83
C/C=C1\NC(=O)[C@H]2CSSCC/C=C/[C@H](CC(=O)N[C@H](C(C)C)C(=O)N2)OC(=O)[C@H](C(C)C)NC1=O [romidepsin]    1.76
O=C(O)C1(C(=O)O)CCC1.[NH2-].[NH2-].[Pt+2] [carboplatin]    2.01

Respectfully, I request CTG-3D luminescence at 96 h for each entry included below.
1. Cc1cc(Nc2ncc(Cl)c(Nc3ccccc3S(=O)(=O)C(C)C)n2)c(OC(C)C)cc1C1CCNCC1 [ceritinib]
2. C=CC(=O)N1CCC[C@@H](n2nc(-c3ccc(Oc4ccccc4)cc3)c3c(N)ncnc32)C1 [ibrutinib]

**Result**
2.38
1.47

For Cc1nc(-c2cn3c(n2)-c2ccc(-c4cnn(C(C)(C)C(N)=O)c4)cc2OCC3)n(C(C)C)n1 [taselisib] the compound record lists CTG-3D luminescence at 96 h as 1.36

---

- Tested on: HCI-025 (organoid from a breast cancer xenograft)
- assay protocol: CTG-3D luminescence at 96 h relative to day-0 seeding control (ratio to day 0); higher = more growth / less cytotoxicity; PDxO 3D drug screen, 96 h, CTG-3D normalised to day-0 seeding control.
- protocol conditions: 10 µM; days in culture: 172
Answer each item with its documented CTG-3D luminescence at 96 h.
Give bare numbers.

Solved cases (5 shown):
O=C(O)C1(C(=O)O)CCC1.[NH2-].[NH2-].[Pt+2] [carboplatin]    1.11
CCc1c2c(nc3ccc(O)cc13)-c1cc3c(c(=O)n1C2)COC(=O)[C@]3(O)CC [SN-38]    0.0768
NC1(C(=O)N[C@@H](CCO)c2ccc(Cl)cc2)CCN(c2nc[nH]c3nccc2-3)CC1 [capivasertib]    0.474
Nc1ccn([C@@H]2O[C@H](CO)[C@@H](O)C2(F)F)c(=O)n1 [gemcitabine]    0.364
Cc1cc(Nc2ncc(Cl)c(Nc3ccccc3S(=O)(=O)C(C)C)n2)c(OC(C)C)cc1C1CCNCC1 [ceritinib]    0.00721

Respectfully, I request CTG-3D luminescence at 96 h for each entry included below.
1. C/C=C1\NC(=O)[C@H]2CSSCC/C=C/[C@H](CC(=O)N[C@H](C(C)C)C(=O)N2)OC(=O)[C@H](C(C)C)NC1=O [romidepsin]
2. CCN(c1cc(C#CCN2CCOCC2)cc(C(=O)NCc2c(C)cc(C)[nH]c2=O)c1C)[C@H]1CC[C@H](N(C)CCOC)CC1

**Result**
[-0.306, 1.89]

From: the supplement of paper PMC8882468
